measured on: T1, PUF4 RNA-binding domain (Saccharomyces cerevisiae, UniProt P25339 537-888)
T1 sequence: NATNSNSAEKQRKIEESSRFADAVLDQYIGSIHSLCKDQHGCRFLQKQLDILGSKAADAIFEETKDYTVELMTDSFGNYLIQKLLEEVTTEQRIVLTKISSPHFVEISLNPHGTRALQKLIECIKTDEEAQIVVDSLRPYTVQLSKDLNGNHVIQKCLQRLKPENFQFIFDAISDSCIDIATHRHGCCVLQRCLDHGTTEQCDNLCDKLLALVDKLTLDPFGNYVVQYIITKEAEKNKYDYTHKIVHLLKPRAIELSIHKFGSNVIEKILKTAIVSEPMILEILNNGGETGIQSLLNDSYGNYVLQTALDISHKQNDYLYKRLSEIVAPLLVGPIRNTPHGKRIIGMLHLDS
test name: Mg; RNA-MaP; 20 mM Na-HEPES pH 7.4, 30 mM KOAc, 0.75 mM MgCl2, 0.1% Tween-20, 5% glycerol, 0.1 mg/mL BSA, 2 mM DTT; 25 C; 0.0125-409.6 nM protein
condition parameters: tags: N-His6-TEV cleaved; C-SNAP kept, Cy3B-labelled; label: tethered on chip by stalled RNA polymerase
endpoint label: Kd
Record the result as a number with its unit.

[in] So what's the measured Kd for this one? Ic_S4_P3E.1_K3.1_C3.1_H3.1_A3.1_[A6T]_F3.1_T3.1 (ssRNA) RNA: UUUGACAACUGAUCGUUCUUUCUUGUAUUUAUUCUUUCUCGAUCAGUUGUCUUU
[out] 15.3 nM

[in] Consider next the binder UCUCUUGGUAUAUAUAGUUCUCUU (ssRNA) [Id_ii_S1_P3E.3_K3.2_C3.2_[C-2G]_[T-1G]_H3.2_A3.1_F3.1_T3.2_[T9G]_[A10T]] in the same way.
[out] 124 nM

[in] Consider next the binder Ie_S4_P3E.2_K3.1_C3.2_H3.1_[+3CTT]_A3.1_F3.1_T3.2 (ssRNA) RNA: UUUGACAACUGAUCGUUCUUUCUCUUGUCUUAUAUAUAUUCUUUCUCGAUCAGUUGUCUUU in the same way.
[out] 11.4 nM

[in] Consider next the binder UCUCUUUGUACACUGUCUCUU (ssRNA) [Ic_S1_P4E.1_K4.1_C4.1_H4.1_A4.1_[T5C]_[T7C]_F4.1_[A9G]_T4.1] in the same way.
[out] 5.05 nM

[in] Consider next the binder Ic_S4_P5E.1_K5.1_C5.1_H5.1_A5.1_[T5C]_[T6A]_[A7C]_F5.1_[T8C]_[A10G]_T5.1 (ssRNA) RNA: UUUGACAACUGAUCGUUCUUUCUUGUACACCUGUUCUUUCUCGAUCAGUUGUCUUU in the same way.
[out] 81 nM

[in] Consider next the binder UCUCUUCUACACUAUAUGUCUCUU (ssRNA) [Id_ii_S1_P3E.4_K3.3_C3.2_H3.3_A3.1_F3.1_T3.2_[A10G]] in the same way.
[out] 1320 nM
